IC50 values for the compounds below.
biological target: CIB1 and αIIb interaction (GST-CIB1 : F-αIIb peptide) (Homo sapiens, UniProt Q99828); construct: made in house; host or cells: BL-21 plus RIL cells (E. coli); assay: FP assay, 384-well format (screen); assay type: binding; conditions: F-αIIb peptide; read-out: 384-well SCREEN IC50
Sequence (Q99828 whole entry): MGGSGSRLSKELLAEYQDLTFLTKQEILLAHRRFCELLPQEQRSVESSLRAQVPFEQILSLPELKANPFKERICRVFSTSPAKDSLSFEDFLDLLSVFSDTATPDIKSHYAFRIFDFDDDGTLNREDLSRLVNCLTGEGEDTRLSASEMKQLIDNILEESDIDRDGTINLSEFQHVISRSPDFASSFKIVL
PARAMETER_MEASURED: IC50

1. Cc1nc(/N=N\c2cc(S(=O)(=O)O)c3cc([N+](=O)[O-])cc(S(=O)(=O)O)c3c2)c(COP(=O)(O)O)c(C=O)c1O [NCGC00162294-03]    1.7 µM
2. NS(=O)(=O)c1ccc(Cc2c(-c3cccc(-c4ccccc4F)c3)nn(-c3nc(C(=O)O)cs3)c2O)cc1.O=C(O)C(F)(F)F [NCGC00356464-01]    22.4 µM
3. O=C(O)C(F)(F)F.O=c1c2ccccc2nc2sc(NS(=O)(=O)c3ccc4c(c3)CCC4)nn12 [NCGC00187579-01]    44.7 µM
4. O=[N+]([O-])c1ccc2c(c1)S(=O)(=O)C=C2 [NCGC00167848-02]    120 µM
5. O=C1C(I)=CC(=C(c2cc(I)c([O-])c(I)c2)c2ccccc2C(=O)[O-])C=C1I.[Na+].[Na+] [NCGC00161636-02]    31.6 µM
6. COc1cc(/C=C2/N=C(c3ccccc3)OC2=O)c(F)cc1OCc1ccccc1 [NCGC00168015-01]    > 120 µM
7. COc1ccc(CNC(=O)c2nc(S(=O)(=O)Cc3ccccc3)ncc2Cl)cc1.O=C(O)C(F)(F)F [NCGC00117170-03]    7.1 µM
8. CCOC(=O)c1nnc(NS(=O)(=O)c2ccc(NC(=O)Cc3ccc(Cl)c(Cl)c3)cc2)s1.O=C(O)C(F)(F)F [NCGC00248354-01]    28.2 µM
9. Cc1ccc(S(=O)(=O)Nc2cnccc2C(=O)Nc2nc(-c3ccc(Cl)cc3)cs2)cc1.O=C(O)C(F)(F)F [NCGC00318981-01]    > 120 µM
10. CC(=O)N1CCN(c2ccc(OCc3nn(C)c(C)c3-c3cccc4c(CCCOc5cccc6ccccc56)c(C(=O)O)n(Cc5cccnc5)c34)cc2)CC1 [NCGC00347174-02]    28.2 µM
11. CCOC(=O)c1ccc(O)c2ncc(-c3ccc(C(=N)N)cc3)cc12.O=C(O)C(F)(F)F [NCGC00241050-01]    20 µM
12. Cc1cc(NS(=O)(=O)c2ccc(NCCc3ccc(Cl)c(Cl)c3)cc2)no1.O=C(O)C(F)(F)F [NCGC00244100-02]    22.4 µM
13. CN1CCCN=C1/C=C/c1cccs1 [NCGC00094552-04]    > 120 µM
14. O=C(CN(c1cccc(Br)c1)S(=O)(=O)c1ccccc1)NN=CC1=CC(=[N+]([O-])O)C=CC1=O.O=C(O)C(F)(F)F [NCGC00248455-01]    11.2 µM
